# Tested on: Staphylococcus aureus
# Assay Overview: In vitro minimum inhibitory concentration against Staphylococcus aureus MRSA 3359
# Type: functional

Structure As Smiles	MIC
CN(CCCCN(C)C[C@@H](O)CO[C@@H]1[C@@H](O)[C@H](N)C[C@H](N)[C@H]1O[C@H]1O[C@H](CN)[C@@H](O)C[C@H]1N)C[C@H](O)CO[C@@H]1[C@@H](O)[C@H](N)C[C@H](N)[C@H]1O[C@H]1O[C@H](CN)[C@@H](O)[C@H](O)[C@H]1N	32 µg/mL
CCN(CCN(CC)C[C@@H](O)CO[C@@H]1[C@@H](O)[C@H](N)C[C@H](N)[C@H]1O[C@H]1O[C@H](CN)[C@@H](O)[C@H](O)[C@H]1N)C[C@@H](O)CO[C@@H]1[C@@H](O)[C@H](N)C[C@H](N)[C@H]1O[C@H]1O[C@H](CN)[C@@H](O)[C@H](O)[C@H]1N	> 50 µg/mL
NC[C@H]1O[C@H](O[C@H]2[C@H](OC[C@H](O)CN3CC4CC3CN4C[C@@H](O)CO[C@@H]3[C@@H](O)[C@H](N)C[C@H](N)[C@H]3O[C@H]3O[C@H](CN)[C@@H](O)[C@H](O)[C@H]3N)[C@@H](O)[C@H](N)C[C@@H]2N)[C@H](N)[C@@H](O)[C@@H]1O	> 50 µg/mL
NC[C@H]1O[C@H](O[C@H]2[C@H](OC[C@H](O)CNCCCNCCNC[C@@H](O)CO[C@@H]3[C@@H](O)[C@H](N)C[C@H](N)[C@H]3O[C@H]3O[C@H](CN)[C@@H](O)[C@H](O)[C@H]3N)[C@@H](O)[C@H](N)C[C@@H]2N)[C@H](N)[C@@H](O)[C@@H]1O	> 50 µg/mL

* * *

Below is a list of entries, each paired with its recorded MIC value.
# System: Staphylococcus aureus
# Assay Overview: In vitro minimum inhibitory concentration against Staphylococcus aureus MRSA 3359
# Type: functional

Structure As Smiles	MIC
CN(CCCCCCN(C)C[C@@H](O)CO[C@@H]1[C@@H](O)[C@H](N)C[C@H](N)[C@H]1O[C@H]1O[C@H](CN)[C@@H](O)[C@H](O)[C@H]1N)C[C@@H](O)CO[C@@H]1[C@@H](O)[C@H](N)C[C@H](N)[C@H]1O[C@H]1O[C@H](CN)[C@@H](O)[C@H](O)[C@H]1N	> 50 µg/mL
NC[C@H]1O[C@H](O[C@H]2[C@H](O)[C@@H](O[C@H]3O[C@H](CO)[C@@H](O)[C@H](N)[C@H]3O)[C@H](N)C[C@@H]2N)[C@H](N)C[C@@H]1O	> 64 µg/mL

* * *

# Tested on: Staphylococcus aureus
# Assay Overview: In vitro minimum inhibitory concentration against Staphylococcus aureus MRSA 3359
# Assay type: functional
Below, each entry is listed alongside its reported MIC.

Structure As Smiles	Censoring Qualifier	MIC [µg/mL]
CN(CCCCN(C)C[C@@H](O)CO[C@@H]1[C@@H](O)[C@H](N)C[C@H](N)[C@H]1O[C@H]1O[C@H](CN)[C@@H](O)[C@H](O)[C@H]1N)C[C@@H](O)CO[C@@H]1[C@@H](O)[C@H](N)C[C@H](N)[C@H]1O[C@H]1O[C@H](CN)[C@@H](O)[C@H](O)[C@H]1N	=	16
NC[C@H]1O[C@H](O[C@H]2[C@H](OC[C@H](O)CN[C@H]3CC[C@H](NC[C@@H](O)CO[C@@H]4[C@@H](O)[C@H](N)C[C@H](N)[C@H]4O[C@H]4O[C@H](CN)[C@@H](O)[C@H](O)[C@H]4N)CC3)[C@@H](O)[C@H](N)C[C@@H]2N)[C@H](N)[C@@H](O)[C@@H]1O	=	50
CN(CCCCN(C)C[C@@H](O)CO[C@@H]1[C@@H](O)[C@H](O[C@H]2O[C@H](CN)[C@@H](O)C[C@H]2N)[C@@H](N)C[C@H]1N)C[C@H](O)CO[C@@H]1[C@@H](O)[C@H](O[C@@H]2O[C@H](CN)C[C@H](O)[C@H]2N)[C@@H](N)C[C@H]1N	=	20.9
NC[C@H]1O[C@H](O[C@H]2[C@H](OC[C@@H](O)CNCCCCNC[C@@H](O)CO[C@@H]3[C@@H](O)[C@H](N)C[C@H](N)[C@H]3O[C@H]3O[C@H](CN)[C@@H](O)C[C@H]3N)[C@@H](O)[C@H](N)C[C@@H]2N)[C@H](N)[C@@H](O)[C@@H]1O	=	16
NC[C@H]1O[C@H](O[C@H]2[C@H](OC[C@H](O)CN3CCCN(C[C@@H](O)CO[C@@H]4[C@@H](O)[C@H](N)C[C@H](N)[C@H]4O[C@H]4O[C@H](CN)[C@@H](O)[C@H](O)[C@H]4N)CC3)[C@@H](O)[C@H](N)C[C@@H]2N)[C@H](N)[C@@H](O)[C@@H]1O	>	50

* * *

// reported MIC per item
# Tested on: Staphylococcus aureus
# Assay Overview: In vitro minimum inhibitory concentration against Staphylococcus aureus ATCC 29213
# Format: functional
Parameter Measured: MIC (µg/mL)

Structure As Smiles	Parameter Measured	Censoring Qualifier	Value Measured
NC[C@@H]1C[C@H](O)[C@@H](N)[C@H](O[C@H]2[C@H](O)[C@@H](OC[C@@H](O)CN[C@H]3CC[C@H](NC[C@@H](O)CO[C@@H]4[C@@H](O)[C@H](O[C@H]5O[C@H](CN)[C@@H](O)C[C@H]5N)[C@@H](N)C[C@H]4N)CC3)[C@H](N)C[C@@H]2N)O1	MIC	=	0.5
CCN(CCN(CC)C[C@@H](O)CO[C@@H]1[C@@H](O)[C@H](N)C[C@H](N)[C@H]1O[C@H]1O[C@H](CN)[C@@H](O)[C@H](O)[C@H]1N)C[C@@H](O)CO[C@@H]1[C@@H](O)[C@H](N)C[C@H](N)[C@H]1O[C@H]1O[C@H](CN)[C@@H](O)[C@H](O)[C@H]1N	MIC	>	50
NC[C@@H]1C[C@H](O)[C@@H](N)[C@H](O[C@H]2[C@H](O)[C@@H](OC[C@@H](O)CNCCCCNC[C@@H](O)CO[C@@H]3[C@@H](O)[C@H](O[C@H]4O[C@H](CN)[C@@H](O)C[C@H]4N)[C@@H](N)C[C@H]3N)[C@H](N)C[C@@H]2N)O1	MIC	=	0.5

* * *

Entries and their MIC values follow.
# Test system: Staphylococcus aureus
# Assay Overview: In vitro minimum inhibitory concentration against Staphylococcus aureus ATCC 29213
# Type: functional

Structure As Smiles	MIC / µg/mL
CN(CCCCN(C)C[C@@H](O)CO[C@@H]1[C@@H](O)[C@H](N)C[C@H](N)[C@H]1O[C@H]1O[C@H](CN)[C@@H](O)[C@H](O)[C@H]1N)C[C@@H](O)CO[C@@H]1[C@@H](O)[C@H](N)C[C@H](N)[C@H]1O[C@H]1O[C@H](CN)[C@@H](O)[C@H](O)[C@H]1N	1
NC[C@H]1O[C@H](O[C@H]2[C@H](OC[C@H](O)CNCCCCNC[C@@H](O)CO[C@@H]3[C@@H](O)[C@H](N)C[C@H](N)[C@H]3O[C@H]3O[C@H](CN)[C@@H](O)[C@H](O)[C@H]3N)[C@@H](O)[C@H](N)C[C@@H]2N)[C@H](N)[C@@H](O)[C@@H]1O	1
NC[C@H]1O[C@H](O[C@H]2[C@H](OC[C@H](O)CN[C@H]3CC[C@H](NC[C@@H](O)CO[C@@H]4[C@@H](O)[C@H](N)C[C@H](N)[C@H]4O[C@H]4O[C@H](CN)[C@@H](O)[C@H](O)[C@H]4N)CC3)[C@@H](O)[C@H](N)C[C@@H]2N)[C@H](N)[C@@H](O)[C@@H]1O	50
CN(CCCCN(C)C[C@@H](O)CO[C@@H]1[C@@H](O)[C@H](N)C[C@H](N)[C@H]1O[C@H]1O[C@H](CN)[C@@H](O)C[C@H]1N)C[C@H](O)CO[C@@H]1[C@@H](O)[C@H](N)C[C@H](N)[C@H]1O[C@H]1O[C@H](CN)[C@@H](O)[C@H](O)[C@H]1N	2

* * *

# Test system: Staphylococcus aureus
# Assay Overview: In vitro minimum inhibitory concentration against Staphylococcus aureus MRSA 3359
# Type: functional

Structure As Smiles	Measured Target	Censoring Qualifier	MIC (mg/L)
NC[C@@H]1C[C@H](O)[C@@H](N)[C@H](O[C@H]2[C@H](O)[C@@H](OC[C@@H](O)CNCCCCNC[C@@H](O)CO[C@@H]3[C@@H](O)[C@H](O[C@H]4O[C@H](CN)[C@@H](O)C[C@H]4N)[C@@H](N)C[C@H]3N)[C@H](N)C[C@@H]2N)O1	Staphylococcus aureus	=	16
NC[C@@H]1C[C@H](O)[C@@H](N)[C@H](O[C@H]2[C@H](O)[C@@H](OC[C@@H](O)CNCCCNC[C@@H](O)CO[C@@H]3[C@@H](O)[C@H](O[C@H]4O[C@H](CN)[C@@H](O)C[C@H]4N)[C@@H](N)C[C@H]3N)[C@H](N)C[C@@H]2N)O1	Staphylococcus aureus	=	10.4
CCN(CCCN(CC)C[C@@H](O)CO[C@@H]1[C@@H](O)[C@H](N)C[C@H](N)[C@H]1O[C@H]1O[C@H](CN)[C@@H](O)[C@H](O)[C@H]1N)C[C@@H](O)CO[C@@H]1[C@@H](O)[C@H](N)C[C@H](N)[C@H]1O[C@H]1O[C@H](CN)[C@@H](O)[C@H](O)[C@H]1N	Staphylococcus aureus	=	50
CN(CCOCCOCCN(C)C[C@@H](O)CO[C@@H]1[C@@H](O)[C@H](N)C[C@H](N)[C@H]1O[C@H]1O[C@H](CN)[C@@H](O)[C@H](O)[C@H]1N)C[C@@H](O)CO[C@@H]1[C@@H](O)[C@H](N)C[C@H](N)[C@H]1O[C@H]1O[C@H](CN)[C@@H](O)[C@H](O)[C@H]1N	Staphylococcus aureus	>	50
NC[C@H]1O[C@H](O[C@H]2[C@H](OC[C@H](O)CNCCCCNC[C@@H](O)CO[C@@H]3[C@@H](O)[C@H](N)C[C@H](N)[C@H]3O[C@H]3O[C@H](CN)[C@@H](O)[C@H](O)[C@H]3N)[C@@H](O)[C@H](N)C[C@@H]2N)[C@H](N)[C@@H](O)[C@@H]1O	Staphylococcus aureus	=	16
NC[C@H]1O[C@H](O[C@H]2[C@H](OC[C@H](O)CN3CCN(C[C@@H](O)CO[C@@H]4[C@@H](O)[C@H](N)C[C@H](N)[C@H]4O[C@H]4O[C@H](CN)[C@@H](O)[C@H](O)[C@H]4N)CC3)[C@@H](O)[C@H](N)C[C@@H]2N)[C@H](N)[C@@H](O)[C@@H]1O	Staphylococcus aureus	>	50
NC[C@@H]1C[C@H](O)[C@@H](N)[C@H](O[C@H]2[C@H](O)[C@@H](OC[C@@H](O)CN[C@H]3CC[C@H](NC[C@@H](O)CO[C@@H]4[C@@H](O)[C@H](O[C@H]5O[C@H](CN)[C@@H](O)C[C@H]5N)[C@@H](N)C[C@H]4N)CC3)[C@H](N)C[C@@H]2N)O1	Staphylococcus aureus	=	16
